The measured values listed here are drawn from ChEMBL document CHEMBL1139467.

# Method Description: Cytotoxicity against mouse NSO cells by MTT assay
# Format: cell-based
# Test Context: read-out: TC50 (the source's name)
Observation Type: CC50 (µM)
Numbers only, in µM.

>>> df
                                   molecule  observation_type  experimental_result
0  CCC1(c2ccc(COc3cccnc3)cc2)Oc2ccccc2-n2cccc2C1=O (racemic)              CC50                  510

Provide CC50 values for the following items, in order.
1. CCC1(c2cccc(I)c2)Oc2ccccc2-n2cccc2C1=O (racemic)
2. CCC1(c2ccc(COc3cccc(Cl)c3)cc2)Oc2ccccc2-n2cccc2C1=O (racemic)
3. CCC1(c2ccc(CNc3ccccc3)cc2)Oc2ccccc2-n2cccc2C1=O (racemic)
4. CCC1(c2ccc(COc3ccccc3)cc2)Oc2ccccc2-n2cccc2C1=O (racemic)
5. CCC1(c2cccc(Cl)c2)Oc2ccccc2-n2cccc2C1=O (racemic)

Result:
[79, 720, 620, 810, 81]

---

# Method Description: Cytotoxicity against mouse 3T3 cells by MTT assay
# Type: cell-based
# Test Context: NIH3T3 cells, read-out: TC50 (the source's name)
For each record, write down the corresponding CC50.
One number for each entry, in µM.

Some entries whose results are on file:
                                   molecule  reading_unit  experimental_result
0  CCC1(c2cccc(I)c2)Oc2ccccc2-n2cccc2C1=O (racemic)            µM                   78
1  CCC1(c2ccc(CNc3ccccc3)cc2)Oc2ccccc2-n2cccc2C1=O (racemic)            µM                  630
2  CCC1(c2cccc(Cl)c2)Oc2ccccc2-n2cccc2C1=O (racemic)            µM                   81
3  CCC1(c2ccc(COc3cccnc3)cc2)Oc2ccccc2-n2cccc2C1=O (racemic)            µM                  500

Provide CC50 values for the following items, in order.
1. CCC1(c2ccc(COc3ccccc3)cc2)Oc2ccccc2-n2cccc2C1=O (racemic)
2. CCC1(c2ccc(COc3cccc(Cl)c3)cc2)Oc2ccccc2-n2cccc2C1=O (racemic)

Result:
1. 820
2. 700

---

# Assay System: Human immunodeficiency virus type 1 reverse transcriptase (Human immunodeficiency virus 1, UniProt Q72547, K103N)
# Method Description: Inhibition of HIV1 RT K103N mutant
Observation Type: IC50 (µmol)
Give bare numbers, in µmol.

Some entries whose results are on file:
                                   compound  observation_type  reading_unit  experimental_result
0  CCC1(c2cccc(OC)c2)Oc2ccccc2-n2cccc2C1=O (racemic)              IC50          µmol                0.022
1  CCC1(c2ccc(Cn3ccsc3=N)cc2)Oc2ccccc2-n2cccc2C1=O (racemic)              IC50          µmol                    5
2  CCC1(c2cccc(C)c2)Oc2ccccc2-n2cccc2C1=O (racemic)              IC50          µmol                  1.1
3  CCC1(c2ccc(CNc3cccc(F)c3)cc2)Oc2ccccc2-n2cccc2C1=O (racemic)              IC50          µmol                  2.3

Could you now look at the following compound, please?
IC50 in this record for CCC1(c2ccc(COc3ccccc3Cl)cc2)Oc2ccccc2-n2cccc2C1=O (racemic) : 5

---

# Assay System: Human immunodeficiency virus type 1 reverse transcriptase (Human immunodeficiency virus 1, UniProt Q72547, K103N)
# Method Description: Inhibition of HIV1 RT K103N mutant
For each record, write down the corresponding IC50.
Give bare numbers, in µmol.

Provide IC50 values for the following items, in order.
1. CCC1(c2ccc(COc3ccccc3)cc2)Oc2ccccc2-n2cccc2C1=O (racemic)
2. CCC1(c2ccc(COc3cccc(Cl)c3)cc2)Oc2ccccc2-n2cccc2C1=O (racemic)
3. CCC1(c2ccc(CNc3ccccc3)cc2)Oc2ccccc2-n2cccc2C1=O (racemic)

Result:
0.4
0.3
2.5

---

# Method Description: Cytotoxicity against human lymphocytes by MTT assay
# Format: cell-based, Lymphocyte
# Test Context: read-out: TC50 (the source's name)
For each record, write down the corresponding log10 of CC50.
Scale: log10; quantity: CC50; unit before log: µM

>>> print(df.to_string())
                                   compound  observation_type  experimental_result
0  CCC1(c2ccc(COc3cccnc3)cc2)Oc2ccccc2-n2cccc2C1=O (racemic)     log10 of CC50                 2.73
1  CCC1(c2ccc(CNc3ccccc3)cc2)Oc2ccccc2-n2cccc2C1=O (racemic)     log10 of CC50                 2.82

Provide log10 of CC50 values for the following items, in order.
1. CCC1(c2ccc(COc3ccccc3)cc2)Oc2ccccc2-n2cccc2C1=O (racemic)
2. CCC1(c2cccc(Cl)c2)Oc2ccccc2-n2cccc2C1=O (racemic)
3. CCC1(c2ccc(COc3cccc(Cl)c3)cc2)Oc2ccccc2-n2cccc2C1=O (racemic)
4. CCC1(c2cccc(I)c2)Oc2ccccc2-n2cccc2C1=O (racemic)

Result:
1: 2.91; 2: 1.91; 3: 2.86; 4: 1.89

---

# Assay System: Human immunodeficiency virus type 1 reverse transcriptase (Human immunodeficiency virus 1, UniProt Q72547, K103N)
# Method Description: Inhibition of HIV1 RT K103N mutant
Observation Type: IC50 (µmol)
Answers are plain numbers, in µmol.

>>> df
                                   compound  observation_type  experimental_result
0  CCC1(c2cccc(COc3ccccc3)c2)Oc2ccccc2-n2cccc2C1=O (racemic)              IC50                  4.9
1  CCOc1cccc(C2(CC)Oc3ccccc3-n3cccc3C2=O)c1 (racemic)              IC50                  3.5
2  CCC1(c2ccc(COc3ccccc3C(C)=O)cc2)Oc2ccccc2-n2cccc2C1=O (racemic)              IC50                    5
3  CCC1(c2cccc(N)c2)Oc2ccccc2-n2cccc2C1=O (racemic)              IC50                    2

Could you now look at the following compound, please?
IC50 in this record for CCC1(c2ccc(COc3cccnc3)cc2)Oc2ccccc2-n2cccc2C1=O (racemic) : 2

---

For each record, write down the corresponding IC50.
# Assay System: Human immunodeficiency virus type 1 reverse transcriptase (Human immunodeficiency virus 1, UniProt Q72547, Y188L)
# Method Description: Inhibition of HIV1 RT Y188L mutant

Some entries whose results are on file:
In [3]: df
Out[3]:
                                   compound  observation_type  experimental_result
0  CCC1(c2ccc(COc3ccccc3C(C)=O)cc2)Oc2ccccc2-n2cccc2C1=O (racemic)              IC50            > 10 µmol
1  CCC1(c2ccc(COc3cccc(Cl)c3)cc2)Oc2ccccc2-n2cccc2C1=O (racemic)              IC50            > 10 µmol
2  CCC1(c2ccc(COc3ccccc3Cl)cc2)Oc2ccccc2-n2cccc2C1=O (racemic)              IC50            > 10 µmol
3  CCC1(c2cccc(Cl)c2)Oc2ccccc2-n2cccc2C1=O (racemic)              IC50             0.5 µmol
4  CCC1(c2cccc(OC)c2)Oc2ccccc2-n2cccc2C1=O (racemic)              IC50            > 10 µmol

Provide IC50 values for the following items, in order.
1. C=C(C)CCOCc1ccc(C2(CC)Oc3ccccc3-n3cccc3C2=O)cc1 (racemic)
2. CCC1(c2cccc(N)c2)Oc2ccccc2-n2cccc2C1=O (racemic)
3. CCC1(c2cccc(Cl)c2)Cc2ccccc2-n2cccc2C1=O (racemic)
4. CCC1(c2ccc(CCc3ccccc3)cc2)Oc2ccccc2-n2cccc2C1=O (racemic)
5. CCC1(c2ccc(COc3ccccc3)cc2)Oc2ccccc2-n2cccc2C1=O (racemic)

Result:
1: > 10 µmol; 2: > 10 µmol; 3: > 10 µmol; 4: > 10 µmol; 5: 2.3 µmol

---

# Assay System: Human immunodeficiency virus type 1 reverse transcriptase (Human immunodeficiency virus 1, UniProt Q72547, Y188L)
# Method Description: Inhibition of HIV1 RT Y188L mutant
The label YES is reserved for IC50 strictly under 10 µmol; NO covers values equal to or above it.

Solved cases (4 shown):
                                   compound  group
0  CCC1(c2ccc(Cn3ccsc3=N)cc2)Oc2ccccc2-n2cccc2C1=O (racemic)     NO
1  CCC1(c2cccc(I)c2)Oc2ccccc2-n2cccc2C1=O (racemic)     NO
2  CCC1(c2ccc(CNc3ccccc3)cc2)Oc2ccccc2-n2cccc2C1=O (racemic)     NO
3  CCC1(c2ccc(CNc3cccc(F)c3)cc2)Oc2ccccc2-n2cccc2C1=O (racemic)     NO

Problem: Item CCC1(c2cccc(C)c2)Oc2ccccc2-n2cccc2C1=O (racemic) : IC50 beneath 10 µmol, strictly?
Result: YES

Problem: Item CCOc1cccc(C2(CC)Oc3ccccc3-n3cccc3C2=O)c1 (racemic) : IC50 beneath 10 µmol, strictly?
Result: YES

Problem: Item CCC1(c2ccc(COc3cccnc3)cc2)Oc2ccccc2-n2cccc2C1=O (racemic) : IC50 beneath 10 µmol, strictly?
Result: NO

Problem: Item CCC1(c2ccc(I)cc2)Oc2ccccc2-n2cccc2C1=O (racemic) : IC50 beneath 10 µmol, strictly?
Result: NO
